TARGET_OR_SYSTEM: T1, dMpAgo (catalytically inactive MpAgo) (Marinitoga piezophila, UniProt H2J4R4 1-639, D446A)
T1 sequence: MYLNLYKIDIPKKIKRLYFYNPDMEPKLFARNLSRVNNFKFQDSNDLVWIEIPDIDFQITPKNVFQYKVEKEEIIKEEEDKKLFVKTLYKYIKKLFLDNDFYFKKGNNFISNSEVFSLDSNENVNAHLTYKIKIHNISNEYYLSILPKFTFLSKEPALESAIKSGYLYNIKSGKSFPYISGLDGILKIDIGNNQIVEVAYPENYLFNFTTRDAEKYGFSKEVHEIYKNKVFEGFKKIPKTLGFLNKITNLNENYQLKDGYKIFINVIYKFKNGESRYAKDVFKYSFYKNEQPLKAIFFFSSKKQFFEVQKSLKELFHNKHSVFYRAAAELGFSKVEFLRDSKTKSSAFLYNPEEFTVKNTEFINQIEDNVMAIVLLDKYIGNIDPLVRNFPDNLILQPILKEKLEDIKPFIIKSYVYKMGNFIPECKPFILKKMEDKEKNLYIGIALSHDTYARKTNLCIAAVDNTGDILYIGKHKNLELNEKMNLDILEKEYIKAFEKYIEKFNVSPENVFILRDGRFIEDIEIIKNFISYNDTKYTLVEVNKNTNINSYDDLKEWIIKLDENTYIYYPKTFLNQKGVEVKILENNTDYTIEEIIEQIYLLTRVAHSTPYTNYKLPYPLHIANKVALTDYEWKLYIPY
EXPERIMENT: filter binding
MEASUREMENT_KIND: pKd
Please report pKd as the negative decimal logarithm of the molar concentration, giving only the number.

Recorded pKd of G6 guide / A target (mixed, BrdU at guide 1) RNA 1: UGCGGGUGCCAUAUGCAACUU RNA 2: GGCAGCAUUCAACCAUAUGGCAACCGCAUACAGCCAAG , please. 9.11
